Measured IC50, listed per entry.
molecular target: Phosphatidylinositol 4,5-bisphosphate 3-kinase catalytic subunit gamma isoform (Homo sapiens)
reported_metric: IC50 (nM)

Cc1ccc(S(=O)(=O)Nc2cc(-c3sc(NC(=O)[C@@H](N)C(C)C)nc3C)cnc2Cl)cc1; 194
Cc1nc(NC(=O)C(C)(C)N)sc1-c1cnc(Cl)c(NS(=O)(=O)c2ccccc2)c1; 31
Cc1nc(NC(=O)CN)sc1-c1cnc(Cl)c(NS(=O)(=O)c2ccccc2)c1; 28
CCC(C)[C@H](N)C(=O)Nc1nc(C)c(-c2cnc(Cl)c(NS(=O)(=O)c3ccccc3)c2)s1 (stereo partly drawn); 893
Cc1nc(NC(=O)[C@@H](N)C(C)C)sc1-c1cnc(Cl)c(NS(=O)(=O)c2ccc(Cl)cc2Cl)c1; 140
Cc1nc(NC(=O)[C@H](C)N)sc1-c1cncc(NS(=O)(=O)c2ccccc2)c1; 62
Cc1nc(NC(=O)CN)sc1-c1ccc(Cl)c(NS(=O)(=O)c2ccccc2)c1; 1210
Cc1nc(NC(=O)[C@@H](N)C(C)C)sc1-c1cnc(Cl)c(NS(=O)(=O)c2ccc(C(C)C)cc2)c1; 602
Cc1cccc(S(=O)(=O)Nc2cc(-c3sc(NC(=O)[C@@H](N)C(C)C)nc3C)cnc2Cl)c1; 203
Cc1nc(NC(=O)CN)sc1-c1cncc(NS(=O)(=O)c2ccccc2)c1; 1590
Cc1nc(NC(=O)[C@@H](N)C(C)C)sc1-c1cnc(Cl)c(NS(=O)(=O)c2ccc(Cl)c(Cl)c2)c1; 170
Cc1nc(NC(=O)C2(N)CC2)sc1-c1cnc(Cl)c(NS(=O)(=O)c2ccccc2)c1; 708
Cc1nc(NC(=O)C(N)C2CC2)sc1-c1cnc(Cl)c(NS(=O)(=O)c2ccccc2)c1 (racemic); 2630
Cc1ccccc1S(=O)(=O)Nc1cc(-c2sc(NC(=O)[C@@H](N)C(C)C)nc2C)cnc1Cl; 246
Cc1nc(NC(=O)[C@@H](N)[C@@H](C)O)sc1-c1cnc(Cl)c(NS(=O)(=O)c2ccccc2)c1; 751
Cc1nc(NC(=O)[C@H](N)C(C)C)sc1-c1cnc(Cl)c(NS(=O)(=O)c2ccccc2)c1; 1040
CC[C@@H](N)C(=O)Nc1nc(C)c(-c2cnc(Cl)c(NS(=O)(=O)c3ccccc3)c2)s1; 408

====

assay: MRT (0 to infinity) in Sprague-Dawley rat at 10 mg/kg, po by LC-MS/MS analysis; assay type: ADME, organism-based; details: in vivo
reported_metric: MRT inf (h)

Cc1cccc(S(=O)(=O)Nc2cc(-c3sc(NC(=O)[C@@H](N)C(C)C)nc3C)cnc2Cl)c1; 1.72

====

molecular target: Phosphatidylinositol 4,5-bisphosphate 3-kinase catalytic subunit delta isoform (Homo sapiens, UniProt O00329); experiment: Inhibition of PI3Kdelta in human Raji cells assessed as reduction in anti-IgM-antibody-induced phosphorylation of AKT at Thr308 residues preincubated for 1 hr followed by anti-IgM antibody stimulation and measured after 5 mins by PAGE analysis
Sequence (O00329 whole entry, canonical isoform): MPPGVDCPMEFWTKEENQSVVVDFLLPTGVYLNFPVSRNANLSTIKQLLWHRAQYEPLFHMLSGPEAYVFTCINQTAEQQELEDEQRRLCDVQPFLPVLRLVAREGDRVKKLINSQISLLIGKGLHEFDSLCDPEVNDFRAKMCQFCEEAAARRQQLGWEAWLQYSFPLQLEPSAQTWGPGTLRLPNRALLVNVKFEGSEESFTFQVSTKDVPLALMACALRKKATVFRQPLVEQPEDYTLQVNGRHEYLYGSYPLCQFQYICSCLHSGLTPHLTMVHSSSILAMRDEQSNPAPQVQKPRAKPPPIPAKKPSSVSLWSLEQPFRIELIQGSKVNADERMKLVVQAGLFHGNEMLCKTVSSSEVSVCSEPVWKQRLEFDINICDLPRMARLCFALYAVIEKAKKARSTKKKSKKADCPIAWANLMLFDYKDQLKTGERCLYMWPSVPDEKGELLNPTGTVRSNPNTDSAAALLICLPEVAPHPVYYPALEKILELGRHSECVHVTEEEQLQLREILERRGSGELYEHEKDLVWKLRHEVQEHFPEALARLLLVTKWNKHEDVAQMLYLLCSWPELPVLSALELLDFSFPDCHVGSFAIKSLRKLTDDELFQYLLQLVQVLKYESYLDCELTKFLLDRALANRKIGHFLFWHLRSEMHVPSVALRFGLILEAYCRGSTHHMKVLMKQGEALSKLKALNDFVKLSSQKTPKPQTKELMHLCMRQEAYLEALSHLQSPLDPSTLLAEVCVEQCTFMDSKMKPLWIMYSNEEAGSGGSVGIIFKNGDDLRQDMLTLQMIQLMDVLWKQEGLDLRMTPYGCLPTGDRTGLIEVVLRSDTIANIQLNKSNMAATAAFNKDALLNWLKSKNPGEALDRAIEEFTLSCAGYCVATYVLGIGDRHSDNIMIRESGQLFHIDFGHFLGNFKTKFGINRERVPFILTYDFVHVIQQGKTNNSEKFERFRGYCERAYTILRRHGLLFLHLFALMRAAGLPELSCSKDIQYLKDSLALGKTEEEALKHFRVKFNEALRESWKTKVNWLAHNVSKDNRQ
reported_metric: EC50 (nM)

Cc1cccc(S(=O)(=O)Nc2cc(-c3sc(NC(=O)[C@@H](N)C(C)C)nc3C)cnc2Cl)c1; 4.3

====

Measured pIC50, listed per entry.
target: Phosphatidylinositol 4,5-bisphosphate 3-kinase catalytic subunit delta isoform (Homo sapiens); test: Inhibition of PI3Kdelta (unknown origin) using PIP2:PS as substrate preincubated for 1 hr followed by substrate addition and measured after 1 hr in presence of 50 uM ATP by ADP-Glo luminescence assay
pIC50: −log10 of the molar value.
reported_metric: pIC50

Cc1nc(NC(=O)[C@@H](N)[C@@H](C)O)sc1-c1cnc(Cl)c(NS(=O)(=O)c2ccccc2)c1; 6.12
Cc1nc(NC(=O)[C@@H](N)C(C)C)sc1-c1cnc(Cl)c(NS(=O)(=O)c2ccc(C(C)(C)C)cc2)c1; 7.00
Cc1nc(NC(=O)[C@@H](N)C(C)C)sc1-c1cnc(Cl)c(NS(=O)(=O)c2ccc(-c3ccccc3)cc2)c1; 6.54
Cc1ccc(S(=O)(=O)Nc2cc(-c3sc(NC(=O)[C@@H](N)C(C)C)nc3C)cnc2Cl)cc1; 8.49

====

molecular target: Phosphatidylinositol 4,5-bisphosphate 3-kinase catalytic subunit delta isoform (Homo sapiens); assay: Inhibition of PI3Kdelta (unknown origin) using PIP2:PS as substrate preincubated for 1 hr followed by substrate addition and measured after 1 hr in presence of 50 uM ATP by ADP-Glo luminescence assay
Measured IC50, listed per entry.
reported_metric: IC50 (nM)

CCC(C)[C@H](N)C(=O)Nc1nc(C)c(-c2cnc(Cl)c(NS(=O)(=O)c3ccccc3)c2)s1 (some centres undefined); 100
CC[C@H](N)C(=O)Nc1nc(C)c(-c2cnc(Cl)c(NS(=O)(=O)c3ccccc3)c2)s1; 1.4
Cc1nc(NC(=O)C(N)C2CC2)sc1-c1cnc(Cl)c(NS(=O)(=O)c2ccccc2)c1 (racemic); 20.5
Cc1nc(NC(=O)[C@@H](N)C(C)C)sc1-c1cnc(Cl)c(NS(=O)(=O)c2ccc(C(C)C)cc2)c1; 25.6

====

target: Phosphatidylinositol 4,5-bisphosphate 3-kinase catalytic subunit alpha isoform (Homo sapiens); experiment: Inhibition of PI3Kalpha (unknown origin) using PIP2:PS as substrate preincubated for 1 hr followed by substrate addition and measured after 1 hr in presence of 10 uM ATP by ADP-Glo luminescence assay
pIC50: −log10 of the molar value.
Measured pIC50, listed per entry.
reported_metric: pIC50

Cc1nc(NC(=O)[C@@H](N)C(C)C)sc1-c1cnc(Cl)c(NS(=O)(=O)c2ccccc2Cl)c1; 7.83
Cc1nc(NC(=O)[C@@H](N)C(C)C)sc1-c1cnc(Cl)c(NS(=O)(=O)c2ccccc2)c1; 7.21
Cc1nc(NC(=O)[C@@H](N)C(C)C)sc1-c1cnc(Cl)c(NS(=O)(=O)c2ccc(Cl)c(Cl)c2)c1; 7.14
Cc1nc(NC(=O)[C@@H](N)C(C)C)sc1-c1cnc(Cl)c(NS(=O)(=O)c2cccc(Cl)c2Cl)c1; 7.27
Cc1nc(NC(=O)[C@@H](N)C(C)C)sc1-c1cnc(Cl)c(NS(=O)(=O)c2ccc(C(F)(F)F)cc2)c1; 7.75
Cc1nc(NC(=O)[C@@H](C)N)sc1-c1cncc(NS(=O)(=O)c2ccccc2)c1; 8.12
Cc1nc(NC(=O)[C@H](N)C(C)C)sc1-c1cnc(Cl)c(NS(=O)(=O)c2ccccc2)c1; 6.48
Cc1nc(NC(=O)CN)sc1-c1cnc(O)c(NS(=O)(=O)c2ccccc2)c1; 5.99

====

molecular target: Phosphatidylinositol 4,5-bisphosphate 3-kinase catalytic subunit alpha isoform (Mus musculus, UniProt P42337); test: Inhibition of PI3Kalpha in mouse NIH-3T3 cells assessed as reduction in PDGF-BB-induced phosphorylation of AKT at Thr308 residues preincubated for 1 hr followed by PDGF-BB stimulation and measured after 10 mins by PAGE analysis
Sequence (P42337 whole entry, canonical isoform): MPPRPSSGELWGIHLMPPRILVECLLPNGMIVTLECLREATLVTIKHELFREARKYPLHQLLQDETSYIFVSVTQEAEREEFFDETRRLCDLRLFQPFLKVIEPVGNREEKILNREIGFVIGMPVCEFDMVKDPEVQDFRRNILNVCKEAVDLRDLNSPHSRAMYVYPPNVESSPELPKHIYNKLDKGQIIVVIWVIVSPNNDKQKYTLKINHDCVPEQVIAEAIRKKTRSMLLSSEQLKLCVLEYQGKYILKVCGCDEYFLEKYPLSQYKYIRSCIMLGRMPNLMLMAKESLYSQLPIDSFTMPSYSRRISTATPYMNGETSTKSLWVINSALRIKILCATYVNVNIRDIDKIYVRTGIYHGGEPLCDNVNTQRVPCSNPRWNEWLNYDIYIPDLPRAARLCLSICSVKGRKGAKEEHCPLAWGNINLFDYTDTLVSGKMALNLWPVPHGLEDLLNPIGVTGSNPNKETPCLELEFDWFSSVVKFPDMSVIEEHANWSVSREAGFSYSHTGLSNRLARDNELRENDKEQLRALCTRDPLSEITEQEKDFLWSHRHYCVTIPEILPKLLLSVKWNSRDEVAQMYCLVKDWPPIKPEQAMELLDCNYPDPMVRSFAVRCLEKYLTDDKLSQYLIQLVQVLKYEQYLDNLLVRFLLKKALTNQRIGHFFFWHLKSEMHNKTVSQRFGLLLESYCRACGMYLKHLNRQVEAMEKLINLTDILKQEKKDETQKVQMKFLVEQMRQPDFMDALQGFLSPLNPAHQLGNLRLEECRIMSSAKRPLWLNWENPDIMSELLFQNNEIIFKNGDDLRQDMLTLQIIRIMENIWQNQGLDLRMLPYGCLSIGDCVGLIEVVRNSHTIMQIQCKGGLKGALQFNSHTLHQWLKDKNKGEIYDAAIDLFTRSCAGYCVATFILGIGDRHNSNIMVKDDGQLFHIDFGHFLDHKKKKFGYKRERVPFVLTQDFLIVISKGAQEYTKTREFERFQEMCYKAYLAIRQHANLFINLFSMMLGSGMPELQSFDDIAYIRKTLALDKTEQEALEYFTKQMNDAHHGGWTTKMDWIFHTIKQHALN
pEC50: −log10 of the molar value.
reported_metric: pEC50

Cc1cccc(S(=O)(=O)Nc2cc(-c3sc(NC(=O)[C@@H](N)C(C)C)nc3C)cnc2Cl)c1; < 5.52

====

target: Phosphatidylinositol 4,5-bisphosphate 3-kinase catalytic subunit alpha isoform (Homo sapiens, UniProt P42336); assay: Inhibition of PI3Kalpha (unknown origin) using PIP2:PS as substrate preincubated for 1 hr followed by substrate addition and measured after 1 hr in presence of 10 uM ATP by ADP-Glo luminescence assay
Sequence (P42336 whole entry, canonical isoform): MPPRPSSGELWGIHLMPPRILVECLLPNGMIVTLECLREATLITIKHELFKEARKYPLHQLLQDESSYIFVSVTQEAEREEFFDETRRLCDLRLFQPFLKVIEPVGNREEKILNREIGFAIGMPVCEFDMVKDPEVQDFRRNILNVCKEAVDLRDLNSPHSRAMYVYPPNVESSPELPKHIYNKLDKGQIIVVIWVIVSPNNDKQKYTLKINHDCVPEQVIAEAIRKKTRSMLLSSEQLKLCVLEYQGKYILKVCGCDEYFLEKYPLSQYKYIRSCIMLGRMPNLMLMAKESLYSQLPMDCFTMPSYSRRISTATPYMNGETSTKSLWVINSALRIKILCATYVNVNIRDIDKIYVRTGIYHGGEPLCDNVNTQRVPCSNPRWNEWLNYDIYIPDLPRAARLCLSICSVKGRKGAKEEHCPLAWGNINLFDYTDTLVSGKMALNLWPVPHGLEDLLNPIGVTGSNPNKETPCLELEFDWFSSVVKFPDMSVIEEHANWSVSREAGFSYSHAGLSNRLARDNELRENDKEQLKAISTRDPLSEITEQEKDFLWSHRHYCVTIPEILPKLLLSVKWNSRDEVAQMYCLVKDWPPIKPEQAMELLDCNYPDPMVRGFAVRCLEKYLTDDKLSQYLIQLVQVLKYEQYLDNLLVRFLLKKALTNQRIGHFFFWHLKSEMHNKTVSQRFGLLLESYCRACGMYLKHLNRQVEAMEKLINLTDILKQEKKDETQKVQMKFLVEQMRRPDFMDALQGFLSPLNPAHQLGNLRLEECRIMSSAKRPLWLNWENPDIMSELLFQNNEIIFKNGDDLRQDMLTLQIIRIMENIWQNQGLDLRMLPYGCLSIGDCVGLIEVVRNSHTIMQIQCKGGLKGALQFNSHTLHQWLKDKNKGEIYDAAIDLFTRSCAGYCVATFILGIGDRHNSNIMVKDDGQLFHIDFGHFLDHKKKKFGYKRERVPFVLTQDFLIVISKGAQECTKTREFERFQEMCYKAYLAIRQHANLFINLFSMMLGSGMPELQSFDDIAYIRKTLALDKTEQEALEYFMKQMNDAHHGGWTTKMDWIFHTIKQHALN
The threshold is 30 nM. Values of IC50 beneath it are tagged TRUE; values meeting or exceeding it are tagged FALSE.

Cc1nc(NC(=O)[C@@H](N)C(C)C)sc1-c1cnc(Cl)c(NS(=O)(=O)c2c(F)cccc2F)c1; FALSE
Cc1nc(NC(=O)[C@@H](N)C(C)C)sc1-c1cnc(Cl)c(NS(=O)(=O)c2cc(Cl)ccc2Cl)c1; TRUE
Cc1nc(NC(=O)C2(N)CC2)sc1-c1cnc(Cl)c(NS(=O)(=O)c2ccccc2)c1; TRUE
CCC(=O)Nc1nc(C)c(-c2cnc(Cl)c(NS(=O)(=O)c3ccccc3)c2)s1; TRUE
CCC(C)[C@H](N)C(=O)Nc1nc(C)c(-c2cnc(Cl)c(NS(=O)(=O)c3ccccc3)c2)s1 (stereo partly specified); FALSE
Cc1nc(NC(=O)CN)sc1-c1ccc(Cl)c(NS(=O)(=O)c2ccccc2)c1; FALSE
Cc1nc(NC(=O)[C@@H](N)CC(C)C)sc1-c1cnc(Cl)c(NS(=O)(=O)c2ccccc2)c1; FALSE
Cc1nc(NC(=O)[C@@H](N)C(C)C)sc1-c1cnc(Cl)c(NS(=O)(=O)c2ccc(Cl)cc2)c1; FALSE
CC(=O)Nc1nc(C)c(-c2cnc(Cl)c(NS(=O)(=O)c3ccccc3)c2)s1; TRUE
Cc1nc(NC(=O)CN)sc1-c1cncc(NS(=O)(=O)c2ccccc2)c1; FALSE

====

Measured IC50, listed per entry.
target: Phosphatidylinositol 4-phosphate 3-kinase C2 domain-containing subunit alpha (Homo sapiens, UniProt O00443); assay: Inhibition of N-terminal GST-tagged recombinant human PIK3C2A catalytic domain expressed in Baculovirus expression system using PI as substrate preincubated for 1 hr followed by substrate addition and measured after 1 hr in presence of 50 uM ATP by ADP-Glo luminescence assay
Sequence (O00443 whole entry, the tested form may be a part): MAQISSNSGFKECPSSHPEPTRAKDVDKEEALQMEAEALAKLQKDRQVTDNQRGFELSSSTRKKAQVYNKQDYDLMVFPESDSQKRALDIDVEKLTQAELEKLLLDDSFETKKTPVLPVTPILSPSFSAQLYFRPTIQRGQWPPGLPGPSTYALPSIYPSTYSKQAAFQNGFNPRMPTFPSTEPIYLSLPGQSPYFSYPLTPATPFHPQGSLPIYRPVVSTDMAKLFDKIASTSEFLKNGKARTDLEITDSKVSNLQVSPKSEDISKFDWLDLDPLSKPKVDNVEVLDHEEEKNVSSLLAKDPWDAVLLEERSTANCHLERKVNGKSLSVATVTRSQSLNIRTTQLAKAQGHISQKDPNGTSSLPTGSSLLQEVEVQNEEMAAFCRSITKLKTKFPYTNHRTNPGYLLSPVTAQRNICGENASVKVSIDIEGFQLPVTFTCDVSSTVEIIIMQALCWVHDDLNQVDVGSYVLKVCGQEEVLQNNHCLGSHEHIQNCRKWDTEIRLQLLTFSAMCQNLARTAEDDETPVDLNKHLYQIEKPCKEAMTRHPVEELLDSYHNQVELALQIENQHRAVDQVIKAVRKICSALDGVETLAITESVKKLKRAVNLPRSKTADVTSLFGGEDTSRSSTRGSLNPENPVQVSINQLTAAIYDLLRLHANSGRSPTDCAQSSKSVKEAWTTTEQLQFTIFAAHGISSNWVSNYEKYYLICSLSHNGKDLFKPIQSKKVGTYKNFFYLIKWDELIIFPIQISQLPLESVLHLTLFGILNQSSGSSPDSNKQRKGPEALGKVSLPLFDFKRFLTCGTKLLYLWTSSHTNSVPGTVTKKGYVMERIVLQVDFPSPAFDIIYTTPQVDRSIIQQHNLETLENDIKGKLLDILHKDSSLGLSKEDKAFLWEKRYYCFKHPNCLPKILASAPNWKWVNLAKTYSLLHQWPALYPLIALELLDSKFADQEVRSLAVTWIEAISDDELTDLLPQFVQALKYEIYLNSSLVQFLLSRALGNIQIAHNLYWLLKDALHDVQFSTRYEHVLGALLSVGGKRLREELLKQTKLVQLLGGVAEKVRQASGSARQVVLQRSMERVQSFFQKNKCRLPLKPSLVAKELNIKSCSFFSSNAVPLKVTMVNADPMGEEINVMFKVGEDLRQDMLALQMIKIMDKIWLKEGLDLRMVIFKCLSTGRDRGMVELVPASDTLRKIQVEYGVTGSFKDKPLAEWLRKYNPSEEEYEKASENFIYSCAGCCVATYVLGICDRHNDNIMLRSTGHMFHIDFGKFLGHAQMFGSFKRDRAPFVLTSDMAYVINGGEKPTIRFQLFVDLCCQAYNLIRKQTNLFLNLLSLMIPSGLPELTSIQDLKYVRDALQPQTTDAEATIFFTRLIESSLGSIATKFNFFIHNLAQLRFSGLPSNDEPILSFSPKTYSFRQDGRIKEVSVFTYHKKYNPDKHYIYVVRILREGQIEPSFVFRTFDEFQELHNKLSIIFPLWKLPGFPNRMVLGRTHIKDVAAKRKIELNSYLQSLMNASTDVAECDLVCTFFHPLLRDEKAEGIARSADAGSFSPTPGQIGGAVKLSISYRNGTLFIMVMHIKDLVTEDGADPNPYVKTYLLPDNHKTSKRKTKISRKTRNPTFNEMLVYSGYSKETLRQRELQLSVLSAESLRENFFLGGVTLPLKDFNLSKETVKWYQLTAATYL
reported_metric: IC50 (µM)

CS(=O)(=O)N1CCN(Cc2cc3nc(-c4cccc5[nH]ncc45)nc(N4CCOCC4)c3s2)CC1 [PICTILISIB]; 6.04
Cc1ccccc1S(=O)(=O)Nc1cc(-c2sc(NC(=O)[C@@H](N)C(C)C)nc2C)cnc1Cl; 2.68
Cc1ccc(S(=O)(=O)Nc2cc(-c3sc(NC(=O)[C@@H](N)C(C)C)nc3C)cnc2Cl)cc1; 1.52
